Molecular target: T1, cynomolgus IL-36γ, truncated (cynomolgus macaque (Macaca fascicularis), UniProt Q9NZH8 18-167 (human entry), limits assumed)
T1 construct: Untagged after removal of the His-SUMO tag; also called cynomolgus IL-36 gamma; cyIL-36gamma
T1 chain: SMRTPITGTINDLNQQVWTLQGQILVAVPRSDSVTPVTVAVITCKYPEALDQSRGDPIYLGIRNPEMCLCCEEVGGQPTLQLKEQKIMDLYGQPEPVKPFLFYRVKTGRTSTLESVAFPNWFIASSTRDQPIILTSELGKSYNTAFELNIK
Experiment: SPR, Biacore, 1:1 Langmuir fit
pKd: −log10 of the molar value.
RECORDED METRIC: pKd

| BINDER | RECORDED METRIC | VALUE MEASURED |
| --- | --- | --- |
| 144L249B LV9 HV10b (antibody, V domains shown, Humanized) VH: QVQLVQSGAEVKKPGASVKVSCKASGFNIKDTYIYWVRQAPGQGLEWIGRIDPAIGTTRYDPKFQGKATLTTDTSTSTAYLELSSLRSEDTAVYYCARYDYSGSSFYFDYWGQGTLVTVSS VL: QAVVTQEPSLTVSPGGTVTLTCRSSTGAVTTSNYANWVQEKPGQLFTGLIGGTNDRAPGVPARFSGSLLGGKAALTLSGAQPEDEADYFCALWYSNHLVFGGGTKLTVL | pKd | 8.95 |
| 144L249B LV9 HV11 (antibody, V domains shown, Humanized) VH: QVQLVQSGAEVKKPGASVKVSCKASGFNIKDTYIYWVRQAPGQGLEWIGRIDPAIGTTRYDPKFQGKATLTTDTSTNTAYLELSSLRSEDTAVYYCARYDYSGSSFYFDYWGQGTLVTVSS VL: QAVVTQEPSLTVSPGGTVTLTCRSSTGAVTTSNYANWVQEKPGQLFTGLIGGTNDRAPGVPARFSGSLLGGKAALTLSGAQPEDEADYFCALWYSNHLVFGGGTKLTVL | pKd | 9.04 |
| 144L249B LV9 HV10c (antibody, V domains shown, Humanized) VH: QVQLVQSGAEVKKPGASVKVSCKASGFNIKDTYIYWVRQAPGQGLEWIGRIDPAIGTTRYDPKFQGKATLTADTSTNTAYLELSSLRSEDTAVYYCARYDYSGSSFYFDYWGQGTLVTVSS VL: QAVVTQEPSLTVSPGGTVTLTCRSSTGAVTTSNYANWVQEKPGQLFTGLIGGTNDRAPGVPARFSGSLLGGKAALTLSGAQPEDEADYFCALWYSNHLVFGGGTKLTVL | pKd | 9.26 |
